tested on: COLO 205 colon; assay: NCI-60 one-dose screen, 48 h; conditions: 10 µM unless noted
About 83,000 compounds went through this panel and 20% of them were active in at least one assay; those are over-represented in the sample as a whole. Active and inactive are the calls of the source. The calls were made as follows: active = growth percent below 10; inactive = the rest.
Outcome codes: active, inactive

compound	categoryLabel
IP(CCCSc1n(Cc2ccc3ccccc3c2)c(-c2ccccc2)c(-c2ccccc2)[n+]1Cc1ccc2ccccc2c1)(c1ccccc1)(c1ccccc1)c1ccccc1	active
O=c1oc2ccc(-c3ccc(F)cc3F)cc2c(=O)n1-c1ccc(F)c(F)c1	inactive
CCCCSc1nnc(-c2ccc(-c3ccc(Cl)cc3)nc2C)o1	inactive
Nc1ccc(-c2nnc(SCc3ccc(O)c4ncccc34)n2-c2ccccc2)cc1	active
CCNC(=O)Oc1ccc(/C(=C(/C)c2ccc(Cl)cc2)c2ccc(OCCN(C)C)cc2)cc1	inactive
CC[C@H](C)[C@H]1NC(=O)[C@@H]([C@H](O)C(C)C)NC(=O)[C@@H](C)N(C)C(=O)[C@H](C)N(C)C(=O)[C@H](CC(C)C)NC(=O)[C@H](CC(C)C)N(C)C(=O)[C@H](C)N(C)C1=O	active
CC(=O)Nc1ccc(NC(=O)Nc2cccc(-c3nc(-c4ccc(NC(=O)c5cccnc5)cc4Cl)no3)c2)cc1C(F)(F)F	active
O=c1oc2ccc(-c3ccc(F)cc3F)cc2c(=O)n1-c1cccc(C(F)(F)F)c1	inactive
Oc1ccc(CSc2nnc(-c3ccncc3)o2)c2cccnc12	inactive
COCCC[C@H]1O[C@@](O)([C@H](C)[C@@H]2CC(OC)C(O)/C=C(C)/C=C(C)/C=C(\C)C(OC3O[C@@H](C)[C@H](O)C(O)[C@@H]3O)C(C)/C=C(C)/C=C(OC)/C=C(\C)C(=O)O2)C(OC)C(O)[C@]1(C)O[C@H]1C[C@@H](O)[C@H](O[C@H]2C[C@](C)(O)[C@H](O)C(C)O2)C(C)O1 (stereo partly specified)	inactive
COc1ccc(-c2nnc(/N=C3/C(=O)Nc4ccc(Br)cc43)o2)cc1	inactive
CSc1nccc(-c2c(-c3ccc(F)c(OCc4ccc(F)cc4)c3)nc3sccn23)n1	inactive
O=S(=O)(Nc1ccc2c(c1)OC(F)(F)O2)c1ccc(-c2cnc(C3CC3)o2)cc1	inactive
Cc1nn(-c2ccc(Cl)cc2)c(C)c1N=Nc1ccc2oc(=O)ccc2c1	inactive
CCN1C(=O)N(CC)C2SC(N/N=C/C=C/c3ccccc3OC)=NC21 (stereo unspecified)	active
COc1ccc([C@H]2[C@H](O)C(=O)N2c2cc(OC)c(OC)c(OC)c2)cc1	active
